GI50 data for LNCaP cells follow.
attribute measured: GI50 (µM)

For orientation, consider the following solved cases.
>>> df
                                   molecule    tested_on  attribute_measured  quantitative_readout
0  O=S(=O)(N[C@H](CN1CCC[C@H](F)C1)c1ccc(F)cc1)c1ccc(OC(F)(F)F)cc1 [Example 26]  LNCaP cells                GI50                  47.5
1  O=S(=O)(NC(CN1CCNCC1)c1ccc(F)c(F)c1)c1ccc(OC(F)(F)F)cc1 (centres unmarked) [Example 21]  LNCaP cells                GI50                  33.8
2  O=S(=O)(N[C@H](c1ccccc1)C1CCNCC1)c1ccc(OC(F)(F)F)cc1 [Example 12]  LNCaP cells                GI50                  27.1

(I) O=S(=O)(N[C@@H](c1ccc(Cl)cc1)C1CCNCC1)c1ccc(OC(F)(F)F)cc1 [Example 13]
(II) CN(C)CC(c1ccc(Cl)c(Cl)c1)n1cnc(-c2ccc(OC(F)(F)F)cc2)c1 (centres unmarked) [Example 35]
(III) CN(C)CC(NC(=O)c1ccc(OC(F)(F)F)c([N+](=O)[O-])c1)c1ccc(Cl)c(Cl)c1 (centres unmarked) [Example 32]
(IV) CC(C)Oc1ccc(S(=O)(=O)NC2(c3ccc(F)c(F)c3)CCNCC2)cn1 [Example 7]
Sequence the entries by GI50, beginning with the highest number. Enter labels, ranked according to the request.
IV, II, I, III
